# credit: a melting point compilation (Tetko et al.; mined from patent text by program, amines drawn as free bases though some values may be those of a salt)

Would you kindly list melting point for each of these compounds?

Exercise: Output melting point of CCOC(=O)c1cnc2c3c(ccc2c1Cl)C(=O)C(C(C)=O)C=N3 (stereo not drawn)
Key: 288 to 290 °C

Exercise: Output melting point of COC(=O)c1cccc(Cn2ccn(C3CCc4ccccc4C3)c2=S)c1 (stereo not drawn)
Key: 130 to 132 °C

Exercise: Output melting point of `BrCCc1nc(-c2ccccc2)c(-c2ccccc2)o1`
Key: 72 to 74 °C

Exercise: Output melting point of O=C(NC(=O)c1cccc(C(F)(F)F)c1)NC1CN2CCC1CC2 (stereo not drawn)
Key: 197 to 200 °C

Exercise: Output melting point of `O=c1[nH]ncc2[nH]c(-c3ccc(OC(F)F)c(OC4CC4)c3)c(-c3cn[nH]c3)c12`
Key: 294 to 297 °C

Exercise: Output melting point of `Cc1nc(NCCCOc2cccc(CN3CCCCC3)c2)sc1C`
Key: 123 to 125 °C

Exercise: Output melting point of CCOc1cccc(OC)c1CN1CCC(=O)C(C(c2ccccc2)c2ccccc2)C1 (stereo not drawn)
Key: 137 to 138 °C

Exercise: Output melting point of Cc1ccc(S(=O)(=O)OCC2COc3cc(F)c([N+](=O)[O-])cc3O2)cc1 (stereo not drawn)
Key: 106 to 107 °C

Exercise: Output melting point of c1ccc(COC[C@H]2OC(Sc3ccccc3)[C@H](OCc3ccccc3)[C@@H](OCc3ccccc3)[C@@H]2OCc2ccccc2)cc1 (stereo partly drawn)
Key: 85 to 86 °C

Exercise: Output melting point of `CC(C)CNc1c([N+](=O)[O-])cnc2cccnc12`
Key: 97 to 99 °C

Exercise: Output melting point of `O=CNC(=O)N1CC(Oc2cccc(C(F)(F)F)c2)C1`
Key: 118 to 119 °C

Exercise: Output melting point of CC(NC(=O)C(NC(=O)OCc1ccccc1)C(C)C)C(=O)NC(CC(=O)OC(C)(C)C)C(O)c1nc2ccccc2o1 (mixture of isomers)
Key: 81 to 83 °C

Exercise: Output melting point of `COC[C@H]1CN(C2=Nc3ccccc3Nc3sc(C)cc32)CCN1`
Key: 87 to 95 °C

Exercise: Output melting point of `CCCc1nc2c(N)nc3cc(OCCCCCCNS(C)(=O)=O)ccc3c2n1CCCCNS(C)(=O)=O`
Key: 138 to 140 °C

Exercise: Output melting point of `O=c1[nH]c2cc(F)ccc2c(=O)n1CCCN1CC=C(c2ccc(Cl)cc2)CC1`
Key: 197 to 198 °C

Exercise: Output melting point of Cc1c(C2=CCC(c3cccc(F)c3)(N(C)C)CC2)[nH]c2ccccc12 (stereo not drawn)
Key: 157 to 163 °C

Exercise: Output melting point of O=C(O)C(Cc1ccccc1)c1ccc2ccn(Cc3ccccc3)c2c1 (stereo not drawn)
Key: 148 to 150 °C

Exercise: Output melting point of CC(C(=O)C(N)=O)c1ccc(N2Cc3ccccc3C2=O)cc1 (stereo not drawn)
Key: 220 to 222 °C

Exercise: Output melting point of `COc1ccc(NC(=O)Nc2ccc(Cl)c(Cl)c2)cc1NC(=S)Nc1cc(Cl)cc(Cl)c1`
Key: 202 °C

Exercise: Output melting point of `COc1cc2c(c(OC)c1/C=C/c1ccc(C(N)=O)cc1)C(C)(C)CCC2(C)C`
Key: 190 to 194 °C

Exercise: Output melting point of `COc1cccc(-c2cnn(-c3cccc(C(=O)O)c3)c2)c1`
Key: 157 to 158 °C

Exercise: Output melting point of `COc1ncnc(OC)c1NC(=O)CCl`
Key: 193 to 195 °C

Exercise: Output melting point of `Fc1ccc(C(=C(c2ccccc2)c2ccc(OCCN3CCOCC3)cc2)C(F)(F)F)cc1`
Key: 67 to 69 °C

Exercise: Output melting point of `Cc1cnc2ccc(NC3=NCCN3)c(Br)c2n1`
Key: > 260 °C

Exercise: Output melting point of Cc1ccc(C(=O)Nc2cn(C3CCCCO3)nc2C(=O)NCCC(F)(F)F)cn1 (stereo not drawn)
Key: 147 to 148 °C

Exercise: Output melting point of O=C1NC(=S)C(c2cccc(Cl)c2)C1c1ccccc1 (stereo not drawn)
Key: 104 to 106 °C

Exercise: Output melting point of OCC(O)COc1ccc(Br)cc1 (stereo not drawn)
Key: 69 to 75 °C

Exercise: Output melting point of `Cn1c(-c2ccc(Br)cc2)cnc1[C@H](Cc1ccccn1)N(C=O)c1cc2cc(Cl)ccc2o1`
Key: 185 to 188 °C
